Here, each record is paired with measured pEC50 data.
Measured On: Alpha-2A adrenergic receptor (Homo sapiens, UniProt P08913)
Sequence (P08913 whole entry): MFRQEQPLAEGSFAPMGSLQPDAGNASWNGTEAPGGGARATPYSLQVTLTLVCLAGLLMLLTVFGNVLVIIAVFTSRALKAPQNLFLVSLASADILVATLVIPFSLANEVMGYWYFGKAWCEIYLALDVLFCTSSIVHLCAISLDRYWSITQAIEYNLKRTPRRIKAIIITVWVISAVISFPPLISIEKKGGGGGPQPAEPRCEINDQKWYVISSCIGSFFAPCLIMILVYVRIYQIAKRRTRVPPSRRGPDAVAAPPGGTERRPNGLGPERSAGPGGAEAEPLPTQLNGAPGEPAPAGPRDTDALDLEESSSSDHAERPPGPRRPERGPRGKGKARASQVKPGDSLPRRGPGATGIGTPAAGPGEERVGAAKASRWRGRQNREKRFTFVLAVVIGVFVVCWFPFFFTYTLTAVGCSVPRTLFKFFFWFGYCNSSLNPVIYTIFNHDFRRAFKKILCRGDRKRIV
Test Protocol: Agonist activity at human cloned adrenergic alpha-2A receptor expressed in CHOK1 cells by beta-lactamase reporter gene assay
Format: functional, cell-based, CHO-K1
Assay Setup: cho-k1
pEC50: −log10 of the molar value.

>  <Compound>
CS(=O)(=O)Nc1cccc2c1CCCC2c1ncc[nH]1 (stereo in doubt; 17a)

>  <pEC50>
< 5.00

$$$$

Turning to the following compound.
Data request: Reported pEC50 for CS(=O)(=O)Nc1cccc2c1CCCC2c1ncc[nH]1 (stereo in doubt; 17) : what is it?
Data returned: < 5.00

meta.source: ChEMBL document CHEMBL1145605
